Test system: α-isomaltosyl-transferring enzyme
METHOD NOTES: Action of the purified C11 enzyme on saccharide substrates (saccharide composition by HPLC)
Assay type: biochemical, Bacillus globisporus C11
CONDITION: C11 enzyme 2 units/mM-substrate, 10 mM substrate, 30° C., pH 6.0, 12 hours
Protocol: An aqueous solution containing 10 mM of glucose, 6-O-α-glucosylglucose (isomaltose), 6^2-O-α-glucosylmaltose (panose), 6^3-O-α-glucosylmaltotriose (isomaltosylmaltose), 6^4-O-α-glucosylmaltotetraose, or 6^5-O-α-glucosylmaltopentaose was prepared as substrate solution. To each of the above substrate solution was added two units/mM-substrate of the purified α-isomaltosyl-transferring enzyme specimen obtained in Experiment 1-2 and incubated at 30° C. and at pH 6.0 for 12 hours. […]
ENDPOINT: Content of the substrate itself (remaining) in the reaction mixture (%)
Number only, in %; omit the unit.

* OC[C@H]1O[C@H](OC[C@H]2O[C@H](O[C@H]3[C@H](O)[C@@H](O)C(O)O[C@@H]3CO)[C@H](O)[C@@H](O)[C@@H]2O)[C@H](O)[C@@H](O)[C@@H]1O (stereo partly drawn) [6^2-O-α-Glucosylmaltose, 6^2-O-α-glucosylmaltose] | 4.6

Ask: Please indicate Content of the substrate itself (remaining) in the reaction mixture recorded for OC[C@H]1O[C@H](OC[C@H]2O[C@H](O[C@H]3[C@H](O)[C@@H](O)[C@@H](O[C@H]4[C@H](O)[C@@H](O)C(O)O[C@@H]4CO)O[C@@H]3CO)[C@H](O)[C@@H](O)[C@@H]2O)[C@H](O)[C@@H](O)[C@@H]1O (stereo partly drawn) [6^3-O-α-Glucosylmaltotriose, 6^3-O-α-glucosylmaltotriose]
Reply: 4.2

Ask: Provide one value: measured Content of the substrate itself (remaining) in the reaction mixture of OC[C@H]1O[C@H](OC[C@H]2O[C@H](O[C@H]3[C@H](O)[C@@H](O)[C@@H](O[C@H]4[C@H](O)[C@@H](O)[C@@H](O[C@H]5[C@H](O)[C@@H](O)[C@@H](O[C@H]6[C@H](O)[C@@H](O)C(O)O[C@@H]6CO)O[C@@H]5CO)O[C@@H]4CO)O[C@@H]3CO)[C@H](O)[C@@H](O)[C@@H]2O)[C@H](O)[C@@H](O)[C@@H]1O (stereo partly drawn) [6^5-O-α-Glucosylmaltopentaose, 6^5-O-α-glucosylmaltopentaose]
Reply: 4.3

Ask: Provide Content of the substrate itself (remaining) in the reaction mixture value for the following compound: O=C[C@H](O)[C@@H](O)[C@H](O)[C@H](O)CO[C@H]1O[C@H](CO)[C@@H](O)[C@H](O)[C@H]1O [6-O-α-Glucosylglucose, 6-O-α-glucosylglucose]
Reply: 100

Ask: Given the compound OC[C@H]1O[C@H](OC[C@H]2O[C@H](O[C@H]3[C@H](O)[C@@H](O)[C@@H](O[C@H]4[C@H](O)[C@@H](O)[C@@H](O[C@H]5[C@H](O)[C@@H](O)C(O)O[C@@H]5CO)O[C@@H]4CO)O[C@@H]3CO)[C@H](O)[C@@H](O)[C@@H]2O)[C@H](O)[C@@H](O)[C@@H]1O (stereo partly drawn) [6^4-O-α-Glucosylmaltotetraose, 6^4-O-α-glucosylmaltotetraose] , write its reported Content of the substrate itself (remaining) in the reaction mixture.
Reply: 3.4

###

Test system: α-isomaltosyl-transferring enzyme
METHOD NOTES: Action of the purified N75 enzyme on saccharide substrates (saccharide composition by HPLC)
Format: biochemical, Bacillus globisporus N75
CONDITION: N75 enzyme 2 units/mM-substrate, 10 mM substrate, 30° C., pH 6.0, 12 hours
Method: An aqueous solution containing 10 mM of glucose, 6-O-α-glucosylglucose (isomaltose), 6^2-O-α-glucosylmaltose (panose), 6^3-O-α-glucosylmaltotriose (isomaltosylmaltose), 6^4-O-αglucosylmaltotetraose, or 6^5-O-α-glucosylmaltopentaose was prepared as substrate solution. […] After deionizing by conventional method, the resulting reaction solutions were measured for saccharide composition on HPLC, disclosed in Experiment 2-1.
Some compounds, each annotated with its measured Content of the substrate itself (remaining) in the reaction mixture.

* OC[C@H]1O[C@H](OC[C@H]2O[C@H](O[C@H]3[C@H](O)[C@@H](O)[C@@H](O[C@H]4[C@H](O)[C@@H](O)[C@@H](O[C@H]5[C@H](O)[C@@H](O)C(O)O[C@@H]5CO)O[C@@H]4CO)O[C@@H]3CO)[C@H](O)[C@@H](O)[C@@H]2O)[C@H](O)[C@@H](O)[C@@H]1O (stereo partly drawn) [6^4-O-α-Glucosylmaltotetraose, 6^4-O-α-glucosylmaltotetraose] | 3.2%
* OC[C@H]1O[C@H](OC[C@H]2O[C@H](O[C@H]3[C@H](O)[C@@H](O)[C@@H](O[C@H]4[C@H](O)[C@@H](O)C(O)O[C@@H]4CO)O[C@@H]3CO)[C@H](O)[C@@H](O)[C@@H]2O)[C@H](O)[C@@H](O)[C@@H]1O (stereo partly drawn) [6^3-O-α-Glucosylmaltotriose, 6^3-O-α-glucosylmaltotriose] | 4.5%
* O=C[C@H](O)[C@@H](O)[C@H](O)[C@H](O)CO[C@H]1O[C@H](CO)[C@@H](O)[C@H](O)[C@H]1O [6-O-α-Glucosylglucose, 6-O-α-glucosylglucose] | 100%
* OC[C@H]1O[C@H](OC[C@H]2O[C@H](O[C@H]3[C@H](O)[C@@H](O)C(O)O[C@@H]3CO)[C@H](O)[C@@H](O)[C@@H]2O)[C@H](O)[C@@H](O)[C@@H]1O (stereo partly drawn) [6^2-O-α-Glucosylmaltose, 6^2-O-α-glucosylmaltose] | 4.4%

Ask: For the compound OC[C@H]1O[C@H](OC[C@H]2O[C@H](O[C@H]3[C@H](O)[C@@H](O)[C@@H](O[C@H]4[C@H](O)[C@@H](O)[C@@H](O[C@H]5[C@H](O)[C@@H](O)[C@@H](O[C@H]6[C@H](O)[C@@H](O)C(O)O[C@@H]6CO)O[C@@H]5CO)O[C@@H]4CO)O[C@@H]3CO)[C@H](O)[C@@H](O)[C@@H]2O)[C@H](O)[C@@H](O)[C@@H]1O (stereo partly drawn) [6^5-O-α-Glucosylmaltopentaose, 6^5-O-α-glucosylmaltopentaose] , report Content of the substrate itself (remaining) in the reaction mixture.
Reply: 4.2%

###

Tested on: α-isomaltosyl-transferring enzyme
METHOD NOTES: Action of the purified N75 enzyme on saccharide substrates (saccharide composition by HPLC)
Format: biochemical, Bacillus globisporus N75
CONDITION: N75 enzyme 2 units/mM-substrate, 10 mM substrate, 30° C., pH 6.0, 12 hours
ENDPOINT: Content of Isomaltose in the reaction mixture (%)
API: value field is a number in %; no unit string.

Some compounds with known Content of Isomaltose in the reaction mixture results, for comparison:
* OC[C@H]1O[C@H](OC[C@H]2O[C@H](O[C@H]3[C@H](O)[C@@H](O)[C@@H](O[C@H]4[C@H](O)[C@@H](O)[C@@H](O[C@H]5[C@H](O)[C@@H](O)[C@@H](O[C@H]6[C@H](O)[C@@H](O)C(O)O[C@@H]6CO)O[C@@H]5CO)O[C@@H]4CO)O[C@@H]3CO)[C@H](O)[C@@H](O)[C@@H]2O)[C@H](O)[C@@H](O)[C@@H]1O (stereo partly shown) | 1.4
* OC[C@H]1O[C@H](OC[C@H]2O[C@H](O[C@H]3[C@H](O)[C@@H](O)[C@@H](O[C@H]4[C@H](O)[C@@H](O)[C@@H](O[C@H]5[C@H](O)[C@@H](O)C(O)O[C@@H]5CO)O[C@@H]4CO)O[C@@H]3CO)[C@H](O)[C@@H](O)[C@@H]2O)[C@H](O)[C@@H](O)[C@@H]1O (stereo partly shown) | 1.5
* OC[C@H]1O[C@H](OC[C@H]2O[C@H](O[C@H]3[C@H](O)[C@@H](O)C(O)O[C@@H]3CO)[C@H](O)[C@@H](O)[C@@H]2O)[C@H](O)[C@@H](O)[C@@H]1O (stereo partly shown) | 2.0

Continue with the next compound.
Ask: Determine its reported Content of Isomaltose in the reaction mixture: OC[C@H]1O[C@H](OC[C@H]2O[C@H](O[C@H]3[C@H](O)[C@@H](O)[C@@H](O[C@H]4[C@H](O)[C@@H](O)C(O)O[C@@H]4CO)O[C@@H]3CO)[C@H](O)[C@@H](O)[C@@H]2O)[C@H](O)[C@@H](O)[C@@H]1O (stereo partly shown)
Reply: 1.9

###

System: α-isomaltosyl-transferring enzyme
METHOD NOTES: Action of the purified C11 enzyme on saccharide substrates (saccharide composition by HPLC)
Format: biochemical, Bacillus globisporus C11
CONDITION: C11 enzyme; summary of Table 3
ENDPOINT: yield of cyclotetrasaccharide in dry basis from the substrate (%)
# output: bare number, implied unit %

Record excerpt, results attached:
* OC[C@H]1O[C@H](OC[C@H]2O[C@H](O[C@H]3[C@H](O)[C@@H](O)[C@@H](O[C@H]4[C@H](O)[C@@H](O)C(O)O[C@@H]4CO)O[C@@H]3CO)[C@H](O)[C@@H](O)[C@@H]2O)[C@H](O)[C@@H](O)[C@@H]1O (stereo partly drawn) [6^3-O-α-Glucosylmaltotriose, 6^3-O-α-glucosylmaltotriose] | 30.8
* OC[C@H]1O[C@H](OC[C@H]2O[C@H](O[C@H]3[C@H](O)[C@@H](O)[C@@H](O[C@H]4[C@H](O)[C@@H](O)[C@@H](O[C@H]5[C@H](O)[C@@H](O)C(O)O[C@@H]5CO)O[C@@H]4CO)O[C@@H]3CO)[C@H](O)[C@@H](O)[C@@H]2O)[C@H](O)[C@@H](O)[C@@H]1O (stereo partly drawn) [6^4-O-α-Glucosylmaltotetraose, 6^4-O-α-glucosylmaltotetraose] | 25.6
* OC[C@H]1O[C@H](OC[C@H]2O[C@H](O[C@H]3[C@H](O)[C@@H](O)C(O)O[C@@H]3CO)[C@H](O)[C@@H](O)[C@@H]2O)[C@H](O)[C@@H](O)[C@@H]1O (stereo partly drawn) [6^2-O-α-Glucosylmaltose, 6^2-O-α-glucosylmaltose] | 43.5

Ask: Report yield of cyclotetrasaccharide in dry basis from the substrate, nothing else, for this compound: OC[C@H]1O[C@H](OC[C@H]2O[C@H](O[C@H]3[C@H](O)[C@@H](O)[C@@H](O[C@H]4[C@H](O)[C@@H](O)[C@@H](O[C@H]5[C@H](O)[C@@H](O)[C@@H](O[C@H]6[C@H](O)[C@@H](O)C(O)O[C@@H]6CO)O[C@@H]5CO)O[C@@H]4CO)O[C@@H]3CO)[C@H](O)[C@@H](O)[C@@H]2O)[C@H](O)[C@@H](O)[C@@H]1O (stereo partly drawn) [6^5-O-α-Glucosylmaltopentaose, 6^5-O-α-glucosylmaltopentaose]
Reply: 18.2
